system: Ebolavirus; assay: Inhibition of fluorescent dsRNA probe binding to N-terminal His-tagged recombinant Ebola virus VP35 interferon inhibitory domain assessed as normalized intensity for DNA binding at 200 uM pre-incubated for 5 mins before dsRNA addition and measured after 5 mins by ethidium bromide displacement based EMSA method relative to control; parameters: scale not given: the % may be the effect or the level left
Assay metric: Activity (%)
Just the number please, in %, no unit attached.

# Structure, Tested target, Unit text, Activity
records = [
    ("Cc1nc(-n2nc(-c3ccccc3)cc2-c2ccccc2)sc1C(=O)/C=C/c1ccc([N+](=O)[O-])cc1", "Ebolavirus", "%", 76.3),
]

Continue with the molecule presented below.
Given the molecule COC1=C/C(=C/C=C(\NNC(=S)NN)c2sc(NNC(C)=O)nc2C)C=CC1=O and test system Ebolavirus, the measured Activity is 81.5

* * *

tested on: Ebolavirus; assay: Inhibition of fluorescent dsRNA probe binding to N-terminal His-tagged recombinant Ebola virus VP35 interferon inhibitory domain at 200 uM pre-incubated for 5 mins before dsRNA addition and measured after 5 mins by ethidium bromide displacement based EMSA method relative to control
Calls of active or inactive are those of the source. The rule behind the calls is not given here.
Assay metric: inhibition

# Molecule, Tested target, inhibition
data = [
    ("c1coc(CNCNCc2ccco2)c1", "Ebolavirus", "inactive"),
    ("CNCc1ccco1", "Ebolavirus", "inactive"),
    ("NC(=O)NC(NC(=O)NC(NC(N)=O)c1ccco1)c1ccco1 (configuration not stated)", "Ebolavirus", "> 50%"),
    ("O=C(OCCCCOC(=O)N1C(=O)c2ccccc2C1=O)N1C(=O)c2ccccc2C1=O", "Ebolavirus", "> 50%"),
    ("CCOC(=O)NC(NC(=O)OCC)c1ccc(C(NC(=O)OCC)NC(=O)OCC)cc1", "Ebolavirus", "> 50%"),
    ("CCOc1ccccc1C(SCC(=O)O)SCC(=O)O", "Ebolavirus", "> 50%"),
]

inhibition reported for this molecule CN1CCN(CCSC(=O)C(Cl)(c2ccccc2)C2CCCC2)CC1 (configuration not stated) : > 50%

* * *

system: DNA; assay: Binding affinity to DNA (unknown origin) assessed as inhibition of fluorescent dsRNA probe binding to DNA at 200 uM at 200 uM pre-incubated for 5 mins before dsRNA addition and measured after 5 mins by ethidium bromide displacement based EMSA method relative to control; assay type: nucleic-acid assay
The source made the active and inactive calls. No cut-off for these calls is given here.
Select the matching outcome among true = active, false = inactive

Solved entries:
# Compound, Class
measured = [
    ("CN1CCN(CCSC(=O)C(Cl)(c2ccccc2)C2CCCC2)CC1 (stereo unspecified)", "false"),
    ("COC1=C/C(=C/C=C(\\NNC(=S)NN)c2sc(NNC(C)=O)nc2C)C=CC1=O", "false"),
    ("CNCc1ccco1", "false"),
    ("O=C(OCCCCOC(=O)N1C(=O)c2ccccc2C1=O)N1C(=O)c2ccccc2C1=O", "true"),
    ("c1coc(CNCNCc2ccco2)c1", "false"),
]

Here's the next entry for you.
What did the test return for NC(=O)NC(NC(=O)NC(NC(N)=O)c1ccco1)c1ccco1 (stereo unspecified) ? false

* * *

Activity values for the compounds below.
system: Ebolavirus; assay: Inhibition of fluorescent dsRNA probe binding to N-terminal His-tagged recombinant Ebola virus VP35 interferon inhibitory domain assessed as normalized intensity for DNA binding at 200 uM pre-incubated for 5 mins before dsRNA addition and measured after 5 mins by ethidium bromide displacement based EMSA method relative to control; set-up: scale not given: the % may be the effect or the level left

# Compound, Measured
rows = [
    ("CN1CCN(CCSC(=O)C(Cl)(c2ccccc2)C2CCCC2)CC1 (stereo not drawn)", "72.3 to 91.8%"),
]

Activity reported for this compound c1coc(CNCNCc2ccco2)c1 : 45 to 98.4%

Activity reported for this compound CCOC(=O)NC(NC(=O)OCC)c1ccc(C(NC(=O)OCC)NC(=O)OCC)cc1 : 79.6 to 108%
